Test system: CCRF-CEM leukemia
test.protocol: NCI tumour cell line growth inhibition, 48 h; in the data active = GI50 below about 0.43 µM; inactive = the rest
Pick one and only one: active, inactive

Would you please look over these solved cases?
# compound, class.label
measured = [
    ("COc1ccccc1NC(=O)c1sc2nc3c(cc2c1N)C(=O)CCC3", "inactive"),
    ("Cc1ccc2c(c1)C(C)Cc1c(ncnc1-n1cnc3ccccc31)N2C (configuration not stated)", "active"),
    ("COc1ccc(C2CC(c3cc(OC)c(OC)c(OC)c3)=NO2)cc1OCCCCOc1cc2c(cc1OC)C(=O)N1CCC[C@H]1C=N2 (some centres not stated)", "inactive"),
    ("COc1ccc2oc(=O)cc(C(c3ccc[nH]3)c3ccc[nH]3)c2c1", "active"),
]

**Query** What classification did CC12CCC3C(CCC4Cc5[nH]c6ccccc6c5CC43C)C1CCC2O (configuration not stated) end up with in this test?
**Result** inactive

**Query** What classification did Cc1cccc(NC(=O)CCc2ccc(N3C(N)=NC(N)=NC3(C)C)cc2)c1 end up with in this test?
**Result** inactive

**Query** What classification did C=CC[n+]1c(/C=C/C=C2\N(C)c3ccccc3C2(C)C)sc2ccc(OC)cc21 end up with in this test?
**Result** active
